- Assay Target: human Kv7.2+Kv7.3 channels (Homo sapiens, UniProt O43525+O43526)
- Construct: expressed in transfected cells; host or cells: HEK293
- Assay Details: Patch-clamp on HEK293 cell lines stably expressing human Kv7.2+Kv7.3 channels
- Format: cell-based
- Run Parameters: current relative to baseline current defined as 100%, HEK293 cells, test concentration not given

Compound | Assay Target | IK (%) at −30 mV, 1 s
O=C(Cc1cc(F)cc(F)c1)Nn1c(N2CCCC2)nc2ccccc2c1=O | human Kv7.2+Kv7.3 channels (Homo sapiens, UniProt O43525+O43526) | 150
O=C(Cc1ccc(C(F)(F)F)c(F)c1)Nn1c(N2CCCC2)nc2ccccc2c1=O | human Kv7.2+Kv7.3 channels (Homo sapiens, UniProt O43525+O43526) | 153
CCN(CC)c1nc2ccccc2c(=O)n1NC(=O)Cc1ccc(Cl)cc1 | human Kv7.2+Kv7.3 channels (Homo sapiens, UniProt O43525+O43526) | 144
CCN(CC)c1nc2ccc(F)cc2c(=O)n1NC(=O)Cc1cc(F)cc(F)c1 | human Kv7.2+Kv7.3 channels (Homo sapiens, UniProt O43525+O43526) | 215
CCN(CC)c1nc2ccccc2c(=O)n1NC(=O)Cc1cc(F)cc(F)c1 [Compound D2] | human Kv7.2+Kv7.3 channels (Homo sapiens, UniProt O43525+O43526) | 290
CCN(CC)c1nc2ccc(O)cc2c(=O)n1NC(=O)Cc1cc(F)cc(F)c1 | human Kv7.2+Kv7.3 channels (Homo sapiens, UniProt O43525+O43526) | 110
CC(C(=O)Nn1c(N(C)C)nc2cc(C(F)(F)F)ccc2c1=O)c1cc(F)cc(F)c1 (stereo not shown) | human Kv7.2+Kv7.3 channels (Homo sapiens, UniProt O43525+O43526) | 143

These measurements were taken from patent US8178544B2.
